Listing of recorded pIC50 by entry.
Target: M1 receptor (Homo sapiens, UniProt P11229)
Sequence (P11229 1-460): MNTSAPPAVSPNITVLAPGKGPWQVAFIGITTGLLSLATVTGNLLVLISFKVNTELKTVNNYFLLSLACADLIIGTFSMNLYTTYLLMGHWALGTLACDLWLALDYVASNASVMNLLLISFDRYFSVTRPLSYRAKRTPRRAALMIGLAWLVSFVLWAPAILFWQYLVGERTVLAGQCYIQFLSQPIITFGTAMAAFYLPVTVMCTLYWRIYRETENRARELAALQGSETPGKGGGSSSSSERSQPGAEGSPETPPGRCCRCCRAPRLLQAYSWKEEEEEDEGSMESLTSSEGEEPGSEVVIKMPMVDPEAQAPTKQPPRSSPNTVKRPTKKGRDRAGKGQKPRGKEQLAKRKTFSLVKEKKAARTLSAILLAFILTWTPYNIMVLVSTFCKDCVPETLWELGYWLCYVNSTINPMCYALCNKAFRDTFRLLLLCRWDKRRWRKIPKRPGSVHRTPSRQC
Test: DMR assay, antagonism of acetylcholine in CHO-K1 cells stably transfecting the M1 receptor
Details: CHO-K1-M1 cells, DMR, acetylcholine 1 μM, 1 h pretreatment, time point 5 min
Source text: The present invention relates to the antagonistic activity of the compound against the muscarinic receptor, which is primarily assessed by a cell-level dynamic mass redistribution (DMR) assay method. […]
pIC50: −log10 of the molar value.
METRIC: pIC50

* CC(=O)Oc1ccc(C)cc1C(CC1CCCCN1C)c1ccccc1 (stereo not drawn) [II-24] | 5.48
* Cc1ccc(O)c(C(CC2CCCC[N+]2(C)C)c2ccccc2F)c1 (stereo not drawn) [I-7] | 6.49
* Cc1ccc(OC(=O)c2ccccc2)c(C(CC2CCCCN2C)c2ccccc2)c1 (stereo not drawn) [II-25] | 5.80
* Cc1ccc(O)c(C(CC2CCCN2C)c2ccccc2)c1 (stereo not drawn) [II-19] | 7.13
* CCCc1ccc(O)c(C(CC2CCCCN2C)c2ccccc2)c1 (stereo not drawn) [II-6] | 7.14
* C[N+]1(C)CCCCC1CC(c1ccccc1)c1ccccc1O (stereo not drawn) [I-2a-Br] | 7.27
* CCc1ccc(O)c(C(CC2CCCC[N+]2(C)C)c2ccccc2)c1 (stereo not drawn) [I-5-I] | 7.70
* Cc1ccc(OC(=O)c2ccccc2)c(C(CC2CCCC[N+]2(C)C)c2ccccc2)c1 (stereo not drawn) [I-25] | 6.00
* Cc1ccc(O)c(C(CC2CCCC[N+]2(C)C)c2ccccc2)c1 (single isomer, unassigned) [I-4b-Br] | 7.21
* Cc1ccc(O)c(C(CC2CCCC[N+]2(C)C)c2ccccc2)c1 (single isomer, unassigned) [I-4a-Br] | 7.44
* C[N+]1(C)CCCCC1CC(c1ccccc1)c1cc(F)ccc1O (single isomer, unassigned) [I-10a] | 7.88
* Cc1ccc(O)c(C(CC2CCCC[N+]2(C)C)c2ccccc2)c1 (stereo not drawn) [I-4a-2-Br] | 6.08
